Target: NUDT5 and the respective E3 ligase (Homo sapiens, UniProt P40337+Q9UKK9)
Sequence (P40337 whole entry, one chain of several): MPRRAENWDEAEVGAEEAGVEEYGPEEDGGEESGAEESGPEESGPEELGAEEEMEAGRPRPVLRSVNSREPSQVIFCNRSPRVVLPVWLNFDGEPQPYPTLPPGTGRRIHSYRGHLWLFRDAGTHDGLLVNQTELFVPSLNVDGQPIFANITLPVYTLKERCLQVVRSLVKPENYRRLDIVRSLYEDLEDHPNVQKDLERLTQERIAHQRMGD
Experiment: NanoBRET ternary complex formation assay NUDT5 and the respective E3 ligase (VHL or CRBN) in HEK293 cells
Format: cell-based
Conditions: HEK293, 20 h, Supplementary Table 2
Measured Property: Ternary complex formation below 1 µM (20 h)

For orientation, consider the following solved cases.
>>> recorded_measurement("Cn1c(=O)c2c(nc(N3CCN(C(=O)CCCCNc4cccc5c4C(=O)N(C4CCC(=O)NC4=O)C5=O)CC3)n2Cc2nnc(-c3ccc(Cl)c(Cl)c3)o2)n(C)c1=O (stereo not shown)")
"Yes"
>>> recorded_measurement("Cn1c(=O)c2c(nc(N3CCN(C(=O)CCCCCCCCNc4cccc5c4C(=O)N(C4CCC(=O)NC4=O)C5=O)CC3)n2Cc2nnc(-c3ccc(Cl)c(Cl)c3)o2)n(C)c1=O (stereo not shown)")
"Yes"
>>> recorded_measurement("Cn1c(=O)c2c(nc(N3CCN(C(=O)CCCCCCCCOc4cccc5c4C(=O)N(C4CCC(=O)NC4=O)C5=O)CC3)n2Cc2nnc(-c3ccc(Cl)c(Cl)c3)o2)n(C)c1=O (stereo not shown)")
"Yes"
>>> recorded_measurement("Cn1c(=O)c2c(nc(N3CCN(C(=O)CCCCNC(=O)COc4cccc5c4C(=O)N(C4CCC(=O)NC4=O)C5=O)CC3)n2Cc2nnc(-c3ccc(Cl)c(Cl)c3)o2)n(C)c1=O (stereo not shown)")
"No"

**Q:** Supply Ternary complex formation below 1 µM (20 h) value. Item: Cn1c(=O)c2c(nc(N3CCN(C(=O)CCCCCCCNc4cccc5c4C(=O)N(C4CCC(=O)NC4=O)C5=O)CC3)n2Cc2nnc(-c3ccc(Cl)c(Cl)c3)o2)n(C)c1=O (stereo not shown)
**A:** Yes

**Q:** Supply Ternary complex formation below 1 µM (20 h) value. Item: Cn1c(=O)c2c(nc(N3CCN(C(=O)CCOCCOCCOCCNc4cccc5c4C(=O)N(C4CCC(=O)NC4=O)C5=O)CC3)n2Cc2nnc(-c3ccc(Cl)c(Cl)c3)o2)n(C)c1=O (stereo not shown)
**A:** Yes

**Q:** Supply Ternary complex formation below 1 µM (20 h) value. Item: Cc1ncsc1-c1ccc(CNC(=O)C2CC(O)CN2C(=O)C(NC(=O)CCOCCOCCOCCC(=O)N2CCN(c3nc4c(c(=O)n(C)c(=O)n4C)n3Cc3nnc(-c4ccc(Cl)c(Cl)c4)o3)CC2)C(C)(C)C)cc1 (stereo not shown)
**A:** No

---

Molecular target: NUDT5 and the respective E3 ligase (Homo sapiens, UniProt P40337+Q9UKK9)
Test: NanoBRET ternary complex formation assay NUDT5 and the respective E3 ligase (VHL or CRBN) in HEK293 cells
Assay type: cell-based
Conditions: HEK293, 20 h, Supplementary Table 2
Measured Property: Ternary complex formation below 1 µM (20 h)

For orientation, consider the following solved cases.
>>> recorded_measurement("Cn1c(=O)c2c(nc(N3CCN(C(=O)CCOCCOCCOCCOCCNc4cccc5c4C(=O)N(C4CCC(=O)NC4=O)C5=O)CC3)n2Cc2nnc(-c3ccc(Cl)c(Cl)c3)o2)n(C)c1=O (centres unmarked) [ASM130]")
"Yes"
>>> recorded_measurement("Cn1c(=O)c2c(nc(N3CCN(C(=O)CCCCCNc4cccc5c4C(=O)N(C4CCC(=O)NC4=O)C5=O)CC3)n2Cc2nnc(-c3ccc(Cl)c(Cl)c3)o2)n(C)c1=O (centres unmarked) [ASM122]")
"Yes"
>>> recorded_measurement("Cc1ncsc1-c1ccc(CNC(=O)C2CC(O)CN2C(=O)C(NC(=O)COCCOCCCCCCC(=O)N2CCN(c3nc4c(c(=O)n(C)c(=O)n4C)n3Cc3nnc(-c4ccc(Cl)c(Cl)c4)o3)CC2)C(C)(C)C)cc1 (centres unmarked) [ASM076]")
"No"
>>> recorded_measurement("Cn1c(=O)c2c(nc(N3CCN(C(=O)CCCCCCOc4cccc5c4C(=O)N(C4CCC(=O)NC4=O)C5=O)CC3)n2Cc2nnc(-c3ccc(Cl)c(Cl)c3)o2)n(C)c1=O (centres unmarked) [ASM136]")
"No"

Next, consider the following molecule.
**Q:** Supply Ternary complex formation below 1 µM (20 h) value. Item: Cn1c(=O)c2c(nc(N3CCN(C(=O)CCCNc4cccc5c4C(=O)N(C4CCC(=O)NC4=O)C5=O)CC3)n2Cc2nnc(-c3ccc(Cl)c(Cl)c3)o2)n(C)c1=O (centres unmarked) [ASM111]
**A:** Yes
